system: LNCaP; assay: Antiproliferative activity against androgen-sensitive human LNCAP cells assessed as inhibition of DHT-induced cell growth at 50 uM incubated for 48 hrs by sulforhodamine B assay relative to control; type: functional
measured_endpoint: inhibition at 50 µM (%)
Just the number in %, nothing appended.

Prompt line: Can you look up inhibition at 50 µM on LNCaP for CC(C)C(=O)Nc1ccc([N+](=O)[O-])c(C(F)(F)F)c1 [FLUTAMIDE] ?
Response line: 25.1

Prompt line: And the next one, "COc1ccc(NC(=O)[C@H]2CC[C@H]3[C@@H]4CCC5=CC(=O)CC[C@]5(C)[C@H]4CC[C@]23C)cc1" ?
Response line: 29.7

Prompt line: Proceed to "C[C@]12CC[C@H]3[C@@H](CCC4=CC(=O)CC[C@@]43C)[C@@H]1CC[C@@H]2C(=O)Nc1nccs1"
Response line: 100

Prompt line: What about CC(=O)N1CCN(c2ccc(OCC3COC(Cn4ccnc4)(c4ccc(Cl)cc4Cl)O3)cc2)CC1 (stereo not given) [KETOCONAZOLE] ?
Response line: 68.2

Prompt line: // next record "C[C@]12CC[C@H]3[C@@H](CCC4=CC(=O)CC[C@@]43C)[C@@H]1CC[C@@H]2C(=O)Nc1cc(C(F)(F)F)cc(C(F)(F)F)c1"
Response line: 100

Prompt line: And for "C[C@]12CC[C@H]3[C@@H](CCC4=CC(=O)CC[C@@]43C)[C@@H]1CC[C@@H]2C(=O)Nc1ccccc1" ?
Response line: 59.4

Prompt line: Next compound: "Cc1ccc(NC(=O)[C@H]2CC[C@H]3[C@@H]4CCC5=CC(=O)CC[C@]5(C)[C@H]4CC[C@]23C)cc1"
Response line: 27.5

Prompt line: "C[C@]12CC[C@H]3[C@@H](CCC4=CC(=O)CC[C@@]43C)[C@@H]1CC[C@@H]2C(=O)Nc1ccc(Cl)cc1" ?
Response line: 13.4

Prompt line: Here is the next compound: "C[C@]12CC[C@H]3[C@@H](CCC4=CC(=O)CC[C@@]43C)[C@@H]1CC[C@@H]2C(=O)N1CCc2ccccc21"
Response line: 52.6

Prompt line: Request: "C[C@]12CC[C@H]3[C@@H](CCC4=CC(=O)CC[C@@]43C)[C@@H]1CC[C@@H]2C(=O)Nc1ccc(F)cc1"
Response line: 29
